Biological target: biotinylated human IL-17A / AF647-labeled human IL-17RA (Homo sapiens, UniProt Q16552)
Sequence (Q16552 24-155): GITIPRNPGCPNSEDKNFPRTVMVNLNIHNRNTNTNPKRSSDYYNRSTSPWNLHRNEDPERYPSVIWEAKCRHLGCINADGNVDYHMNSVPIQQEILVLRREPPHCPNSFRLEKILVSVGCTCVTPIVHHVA
Experiment: Human IL-17A×IL-17RA TR-FRET assay
Type: binding
Conditions: TR-FRET, 5 nM IL-17A, 30 nM IL-17RA; reference examples (pyridines); read-out: IL17AA FRET/ IL17RAwt IC50
Could you please mark 1.0 for values of IC50 below 900 nM and 0.0 for values at or above it?

molecule: CCc1nocc1C(=O)N[C@H](C(=O)Nc1ccc(-c2c(Cl)ccnc2C)cc1)[C@H]1CCCC(F)(F)C1 [compound 140, reference compound]
class assignment: 0.0

molecule: Cc1ccnc(C)c1-c1ccc(NC(=O)[C@@H](NC(=O)c2ccnn2C)[C@H]2CC[C@H](C)CC2)cc1 [compound 138, reference compound]
class assignment: 1.0

molecule: Cc1nocc1C(=O)N[C@H](C(=O)Nc1ccc(-c2c(C(F)(F)F)ccnc2C)cc1)[C@H]1CCCC(F)(F)C1 [compound 143, reference compound]
class assignment: 1.0

molecule: CCn1nccc1C(=O)N[C@H](C(=O)Nc1ccc(-c2c(C)ccnc2C)cc1)[C@H]1CC[C@H](C(F)(F)F)CC1 [compound 141, reference compound]
class assignment: 0.0

molecule: CCc1nocc1C(=O)N[C@H](C(=O)Nc1ccc(-c2c(C)ccnc2C)cc1)[C@H]1CC[C@H](C(F)(F)F)CC1 [compound 142, reference compound]
class assignment: 0.0

----------
Biological target: recombinant human IL-17AA (Homo sapiens, UniProt Q16552)
Sequence (Q16552 24-155): as above
Assay: IL-6 release from NHDF cells, IL-17AA plus TNF-α stimulation
Format: cell-based
Conditions: NHDF cells, IL-17AA 30 pM + TNF-α 6 pM, 24 hours, IL-6 by ELISA; read-out: IL17AA + TNF IC50 IL-6
measure name: log10 IC50 (log10 of the value in nM)

compound: Cc1c(-c2ccc(NC(=O)C(NC(=O)c3ccc4n3CCNC4)C3CCCc4ccccc43)cc2F)c(Cl)cc[n+]1[O-] (stereo not shown)
assayed target: recombinant human IL-17AA (Homo sapiens, UniProt Q16552)
log10 IC50: 1.53
--
compound: Cc1cc[n+]([O-])c(C)c1-c1ccc(NC(=O)[C@@H](NC(=O)c2conc2C)C2CCC(F)(F)CC2)cc1
assayed target: recombinant human IL-17AA (Homo sapiens, UniProt Q16552)
log10 IC50: 1.64
--
compound: CC(=O)N1CCn2c(ccc2C(=O)NC(C(=O)Nc2ccc(-c3c(Cl)cc[n+]([O-])c3C)c(F)c2)[C@H]2C[C@@H]3C[C@@H]3C2)C1 (stereo partly shown)
assayed target: recombinant human IL-17AA (Homo sapiens, UniProt Q16552)
log10 IC50: 1.67
--
compound: CC(=O)N1CCn2ccc(C(=O)N[C@H](C(=O)Nc3ccc(-c4c(C)cc[n+]([O-])c4C)cc3)C3CCCCCC3)c2C1
assayed target: recombinant human IL-17AA (Homo sapiens, UniProt Q16552)
log10 IC50: 0.99
--
compound: Cc1cc[n+]([O-])c(C)c1-c1ccc(NC(=O)[C@@H](NC(=O)c2ccc3n2CCN(C)C3)C(C)c2ccccc2Cl)cc1 (stereo partly shown)
assayed target: recombinant human IL-17AA (Homo sapiens, UniProt Q16552)
log10 IC50: 3.41
--
compound: Cc1cc[n+]([O-])c(C)c1-c1ccc(NC(=O)[C@H](Cc2ccccc2Cl)NC(=O)c2ccc3n2CCNC3)cc1
assayed target: recombinant human IL-17AA (Homo sapiens, UniProt Q16552)
log10 IC50: 2.44
--
compound: Cc1c(-c2ccc(NC(=O)[C@@H](NC(=O)c3ccnn3C)[C@H]3CCCC(F)(F)C3)cc2)c(C(F)(F)F)cc[n+]1[O-]
assayed target: recombinant human IL-17AA (Homo sapiens, UniProt Q16552)
log10 IC50: 1.62
--
compound: CC(=O)N1CCn2c(ccc2C(=O)N[C@H](C(=O)Nc2ccc(-c3c(C)cc[n+]([O-])c3C)cc2)C2CCCCCC2)C1
assayed target: recombinant human IL-17AA (Homo sapiens, UniProt Q16552)
log10 IC50: 0.78
--
compound: Cc1c(-c2ccc(NC(=O)C(NC(=O)c3ccnn3C(C)C)C3CCCC(F)(F)C3)cc2)c(Cl)cc[n+]1[O-] (stereo not shown)
assayed target: recombinant human IL-17AA (Homo sapiens, UniProt Q16552)
log10 IC50: 1.19
--
compound: Cc1cc(-c2ccc(NC(=O)[C@@H](NC(=O)c3conc3C)C3CCC(F)(F)CC3)cc2)c(C)[n+]([O-])c1
assayed target: recombinant human IL-17AA (Homo sapiens, UniProt Q16552)
log10 IC50: 2.53
--
compound: Cc1c(-c2ccc(NC(=O)[C@@H](NC(=O)c3ccc4n3CCN(C)C4)C3CCC(F)(F)CC3)cc2F)c(Cl)cc[n+]1[O-]
assayed target: recombinant human IL-17AA (Homo sapiens, UniProt Q16552)
log10 IC50: 1.65
--
compound: Cc1cc[n+]([O-])c(C)c1-c1ccc(NC(=O)[C@@H](NC(=O)c2ccnn2C)C(c2ccccc2)c2ccccc2)cc1
assayed target: recombinant human IL-17AA (Homo sapiens, UniProt Q16552)
log10 IC50: 1.67
--
compound: Cc1nocc1C(=O)NC(C(=O)Nc1ccc(-c2c(Cl)cc[n+]([O-])c2C)cc1)C1CC2CC2C1 (single isomer, unassigned) [Example 198]
assayed target: recombinant human IL-17AA (Homo sapiens, UniProt Q16552)
log10 IC50: 1.97
